- System: R. sp. IRBG74
- EXPERIMENTAL_PROTOCOL: Genetic part characterization for Rhizobia (promoters, RBSs, terminators, inducible systems; fluorescence reporter, flow cytometry)
- Format: cell-based, Rhizobium sp.
- EXPERIMENTAL_CONDITIONS: synthetic RBS strength in R. sp. IRBG74; plasmid pMR-40, IPTG-inducible system, 1 mM IPTG induction
- Text: Construction and characterization genetic parts for Rhizobia. Genetic part libraries were built on a pBBR1-ori plasmid pMR-1 using Gibson assembly (New England Biolabs, Cat # E2611). The fluorescence proteins, GFPmut3b and mRFP1 were used as reporters. […] Terminators for T7 RNAP were characterized by placing a terminator between two fluorescence reporters expressed from a single T7 wild-type promoter located upstream of the first fluorescence protein GFP. […]
OBSERVABLE: Strength (GFP, au)
Answer format: number, then unit.

Exercise: Given RBST-12 (DNA TAACAATTTCACACATCTAGAGCTAATCATCGCGTACTAAAAAGGCAAGTAATG; chemistry not fully specified) , state its recorded Strength (GFP, au).
Solution: 1138 au

Exercise: Form field: reported Strength (GFP, au) of RB5r8 (DNA TAACAATTTCACACATCTAGAGCTAATCATCTCGTACTCAGGAGGCAAGTAATG; chemistry not fully specified)
Solution: 1882.5 au

Exercise: Using the record for RBST-11 (DNA TAACAATTTCACACATCTAGAGCTAATCATCGCGTACTCACGAGGCAAGTAATG; chemistry not fully specified) , report its Strength (GFP, au).
Solution: 1554 au

Exercise: Need Strength (GFP, au), item RBST-16 (DNA TAACAATTTCACACATCTAGAGCTAATCATCTCGTACTAATAAGGCAAGTAATG; chemistry not fully specified)
Solution: 532 au

Exercise: # query: Strength (GFP, au) of entry RB5r5 (DNA TAACAATTTCACACATCTAGAGCTAATCATCGCGTACTAAGGAGGCAAGTAATG; chemistry not fully specified)
Solution: 3560 au

Exercise: So what does the record say about Strength (GFP, au) for RBST-19 (DNA TAACAATTTCACACATCTAGAGCTAATCATCGCGTACTAAGTAGGCAAGTAATG; chemistry not fully specified) ?
Solution: 242 au

Exercise: What does the data say about its Strength (GFP, au)? Entry: RBST-27 (DNA TAACAATTTCACACATCTAGAGCTAATCATCGCGTACTAACTACGCAAGTAATG; chemistry not fully specified)
Solution: 12.2 au

Exercise: What does the data say about its Strength (GFP, au)? Entry: RBST-31 (DNA TAACAATTTCACACATCTAGAGCTAATCTTCTCGTACTCATGACGCAAGTAATG; chemistry not fully specified)
Solution: 1.45 au

Exercise: Given the entry RBST-14 (DNA TAACAATTTCACACATCTAGAGCTAATCTTCGCGTACTAAGAAGGCAAGTAATG; chemistry not fully specified) , report its measured Strength (GFP, au).
Solution: 632.5 au

Exercise: For RBST-20 (DNA TAACAATTTCACACATCTAGAGCTAATCATCTCGTACTAACGAGGCAAGTAATG; chemistry not fully specified) , what is its reported Strength (GFP, au)?
Solution: 248 au

Exercise: GET /values?readout=Strength (GFP, au)&item= RBST-28 (DNA TAACAATTTCACACATCTAGAGCTAATCTTCGCGTACTAAGAACGCAAGTAATG; chemistry not fully specified)
Solution: 13 au

Exercise: Param item = RB5r9 (DNA TAACAATTTCACACATCTAGAGCTAATCATCTCGTACTAATGAGGCAAGTAATG; chemistry not fully specified) ; retrieve measured Strength (GFP, au).
Solution: 1593.5 au

Exercise: For the substance RBST-25 (DNA TAACAATTTCACACATCTAGAGCTAATCATCTCGTACTCAATAGGCAAGTAATG; chemistry not fully specified) , what Strength (GFP, au) is on record?
Solution: 45.45 au

Exercise: Strength (GFP, au) for RBST-30 (DNA TAACAATTTCACACATCTAGAGCTAATCTTCGCGTACTAACAACGCAAGTAATG; chemistry not fully specified) ?
Solution: 2.95 au

Exercise: Please look up its Strength (GFP, au): RBST-24 (DNA TAACAATTTCACACATCTAGAGCTAATCTTCTCGTACTAACAAGGCAAGTAATG; chemistry not fully specified)
Solution: 75.15 au

Exercise: Recorded Strength (GFP, au) for RBST-13 (DNA TAACAATTTCACACATCTAGAGCTAATCTTCGCGTACTAAAAAGGCAAGTAATG; chemistry not fully specified) , please?
Solution: 895.5 au

Exercise: Name the recorded Strength (GFP, au) for RBST-15 (DNA TAACAATTTCACACATCTAGAGCTAATCATCTCGTACTAAATAGGCAAGTAATG; chemistry not fully specified) .
Solution: 648.5 au
